src = patent US8822500B2

procedure details: Caco-2 cell permeation study;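 also: Caco-2 monolayers grown for 21–28 days with integrity confirmed by TEER, apical buffer HBSS with MES, basolateral buffer HBSS with HEPES, compound levels quantified by LC/MS/MS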
Assay type: in vitro ADME
condition info: human, Caco-2, Caco-2
efflux ratio at 2 h, 10 μM for assorted compounds

{"columns": ["compound", "efflux ratio at 2 h, 10 μM"],
 "data": [
  ["C[C@@H](Cc1c(F)c(F)cc(F)c1F)Nc1cc[nH]c(=O)c1-c1nc2cc3c(cc2[nH]1)C(O)N(c1cccnc1)C3=O (stereo partly drawn)", "> 9.5"],
  ["CC(Cc1cc(F)ccc1F)Nc1cc[nH]c(=O)c1-c1nc2cc3c(cc2[nH]1)C(=O)N(CC(O)CO)C3=O (stereo not drawn)", "> 5.9"],
  ["C[C@@H](Cc1c(F)c(F)cc(F)c1F)Nc1cc[nH]c(=O)c1-c1nc2cc3c(cc2[nH]1)C(=O)N(CCN(C)C)C3=O", "> 17.8"]
]}
